# Tested on: ASPC-1 tumor-bearing mice
# Test protocol: Biodistribution of radionuclide labeled complexes in ASPC-1 tumor-bearing mice
# Format: in vivo, BALB/c nude mice
# Stated conditions: Blood, 4 h
% ID/g (4 h) Blood values for the compounds below.

{"Compound": "COc1cccc(OC)c1-c1cc(C(=O)NC2(C(=O)O)C3CC4CC(C3)CC2C4)nn1-c1ccc(NC(=O)CCCN(C)CCCN(C)C(=O)CN2CCN(CC(=O)[O-])CCN(CC(=O)[O-])CCN(CC(=O)[O-])CC2)cc1C(C)C.[177Lu+3] (stereo not drawn) [^177Lu-I-5]", "System under test": "ASPC-1 tumor-bearing mice", "Assay value": "15.51 ± 0.77 % ID/g"}
{"Compound": "COc1cccc(OC)c1-c1cc(C(=O)NC2(C(=O)O)C3CC4CC(C3)CC2C4)nn1-c1ccc(N(C)CCCN(C)CCCN(C)C(=O)CN2CCN(CC(=O)[O-])CCN(CC(=O)[O-])CCN(CC(=O)[O-])CC2)cc1C(C)C.[177Lu+3] (stereo not drawn) [^177Lu-I-1]", "System under test": "ASPC-1 tumor-bearing mice", "Assay value": "2.08 ± 0.14 % ID/g"}

Let us examine a further case.
Given the entry COc1cccc(OC)c1-c1cc(C(=O)NC2(C(=O)O)C3CC4CC(C3)CC2C4)nn1-c1ccc(OCCCN(C)CCCN(C)C(=O)CN2CCN(CC(=O)[O-])CCN(CC(=O)[O-])CCN(CC(=O)[O-])CC2)cc1C(C)C.[177Lu+3] (stereo not drawn) [^177Lu-I-7] , what % ID/g (4 h) Blood was observed with ASPC-1 tumor-bearing mice?
1.8 ± 0.62 % ID/g

---

# Test system: ASPC-1 tumor-bearing mice
# Test protocol: Biodistribution of radionuclide labeled complexes in ASPC-1 tumor-bearing mice
# Type: in vivo, BALB/c nude mice
# Stated conditions: Lung, 24 h
# Description: The BALB/c nude mice (Charles River, Beijing) were utilized to establish the xenografted model for biodistribution study. […] At different time points after the administration, the mice treated with each compound were euthanized. The tissues and organs of the animals in each group were collected, excised, weighed, and analyzed in a PerkinElmer 2480 WIZARD2γ counter, and the percent injected dose (% ID) and % ID/g of each organ or tissue were calculated.
Would you mind labelling by % ID/g (24 h) Lung? At or over 0.4 % ID/g is TRUE, under is FALSE.

Say whether COc1cccc(OC)c1-c1cc(C(=O)NC2(C(=O)O)C3CC4CC(C3)CC2C4)nn1-c1ccc(NC(=O)CCCN(C)CCCN(C)C(=O)CN2CCN(CC(=O)[O-])CCN(CC(=O)[O-])CCN(CC(=O)[O-])CC2)cc1C(C)C.[177Lu+3] (stereo not shown) [^177Lu-I-5] shows % ID/g (24 h) Lung of 0.4 % ID/g or more.
FALSE

Say whether COc1cccc(OC)c1-c1cc(C(=O)NC2(C(=O)O)C3CC4CC(C3)CC2C4)nn1-c1ccc(SCCCN(C)CCCN(C)C(=O)CN2CCN(CC(=O)[O-])CCN(CC(=O)[O-])CCN(CC(=O)[O-])CC2)cc1C(C)C.[177Lu+3] (stereo not shown) [^177Lu-I-8] shows % ID/g (24 h) Lung of 0.4 % ID/g or more.
TRUE

Say whether COc1cccc(OC)c1-c1cc(C(=O)NC2(C(=O)O)C3CC4CC(C3)CC2C4)nn1-c1ccc(OCCCN(C)CCCN(C)C(=O)CN2CCN(CC(=O)[O-])CCN(CC(=O)[O-])CCN(CC(=O)[O-])CC2)cc1C(C)C.[177Lu+3] (stereo not shown) [^177Lu-I-7] shows % ID/g (24 h) Lung of 0.4 % ID/g or more.
TRUE

Say whether COc1cccc(OC)c1-c1cc(C(=O)NC2(C(=O)O)C3CC4CC(C3)CC2C4)nn1-c1ccc(C(=O)N(C)CCCN(C)CCCN(C)C(=O)CN2CCN(CC(=O)[O-])CCN(CC(=O)[O-])CCN(CC(=O)[O-])CC2)cc1C(C)C.[177Lu+3] (stereo not shown) [^177Lu-C-2, reference compound] shows % ID/g (24 h) Lung of 0.4 % ID/g or more.
TRUE

Say whether COc1cccc(OC)c1-c1cc(C(=O)NC2(C(=O)O)C3CC4CC(C3)CC2C4)nn1-c1ccc(N(C)CCCN(C)CCCN(C)C(=O)CN2CCN(CC(=O)[O-])CCN(CC(=O)[O-])CCN(CC(=O)[O-])CC2)cc1C(C)C.[177Lu+3] (stereo not shown) [^177Lu-I-1] shows % ID/g (24 h) Lung of 0.4 % ID/g or more.
FALSE
